Below, each entry is listed with its recorded pKd.
Molecular target: T1, 4Ig-B7H3 fused to mouse Fc (B7H3-mFc) (human, UniProt Q5ZPR3 29-466, limits assumed, biotinylated on primary amines (NHS-biotin) in the experiment of paragraph 316)
T1 construct: Expressed in DG44 CHO cells; also called 4Ig-B7H3-Fc; 4Ig-B7H3-mFc; not shown: mouse Fc
T1 sequence (looked up): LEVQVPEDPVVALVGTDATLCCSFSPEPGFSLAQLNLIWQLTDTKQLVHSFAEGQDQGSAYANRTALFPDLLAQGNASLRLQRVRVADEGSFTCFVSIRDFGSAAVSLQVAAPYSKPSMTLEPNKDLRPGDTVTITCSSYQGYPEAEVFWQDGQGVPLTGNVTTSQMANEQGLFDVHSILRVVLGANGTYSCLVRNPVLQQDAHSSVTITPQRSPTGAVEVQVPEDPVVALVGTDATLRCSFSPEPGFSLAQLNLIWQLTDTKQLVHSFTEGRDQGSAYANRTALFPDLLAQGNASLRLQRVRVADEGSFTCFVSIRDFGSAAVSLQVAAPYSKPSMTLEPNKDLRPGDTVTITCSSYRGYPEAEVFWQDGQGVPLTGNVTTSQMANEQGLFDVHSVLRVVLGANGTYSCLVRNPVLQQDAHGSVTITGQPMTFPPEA
Experiment: SPR, IgG on 4Ig-B7H3-Fc
Interpret pKd as the negative base-10 log of the concentration measured in mol/L.

hu8H9 3.1 IgG1 (antibody, V domains shown, also called clone 3.1) VH: QVQLVQSGAEVVKPGASVKLSCKTSGYTFTNYDINWVRQRPGQGLEWIGWIFPGDDSTQYNEKFKGKATLTTDTSTSTAYMELSSLRSEDTAVYFCARQTTGTWFAYWGQGTLVTVSS VL: EIVMTQSPATLSVSPGERVTLSCRASQSISDYLYWYQQKSHESPRLLIKYASQSISGIPARFSGSGSGSEFTLTINSVEPEDVGVYYCQNGHSFPLTFGQGTKLELKR | 8.70

Turning now to a further record.
Output measured pKd for this item: mouse/human chimeric 8H9 (ch8H9) IgG1 (antibody, V domains shown) VH: QVQLQQSGAELVKPGASVKLSCKASGYTFTNYDINWVRQRPEQGLEWIGWIFPGDGSTQYNEKFKGKATLTTDTSSSTAYMQLSRLTSEDSAVYFCARQTTATWFAYWGQGTLVTVSA VL: DIVMTQSPATLSVTPGDRVSLSCRASQSISDYLHWYQQKSHESPRLLIKYASQSISGIPSRFSGSGSGSDFTLSINSVEPEDVGVYYCQNGHSFPLTFGAGTKLELKR
8.92
